# Assay Remarks: Rising dose pharmacokinetics (exposure, gender)
# Type: in vivo, rats
# Study Conditions: Sprague-Dawley, plasma, iv, 60 mg/m2, rat, 60 mg/m^2
Readout Name: half-life (h)

>  <Compound>
O=C(Nc1cccc(Cl)c1)Nc1ncc(CCNc2ncnc3ccsc23)s1 [Compound 2]

>  <Experimental Value>
1.4

$$$$

###

# Assay Remarks: Bioavailability profile, IV, IP and PO
# Type: in vivo, mice
# Study Conditions: CD-1, mouse, plasma, ip, 50 mg/kg

>  <Line Notation>
O=C(Nc1cccc(Cl)c1)Nc1ncc(CCNc2ncnc3ccsc23)s1

>  <half-life, min>
42

$$$$

###

# System: A2780
# Assay Remarks: cells
# Study Conditions: Homo sapiens, A2780, 96 h, read-out: BrdU IC50
pIC50: −log10 of the molar value.

>  <Molecule>
CS(=O)(=O)O.O=C(Nc1cccc(Cl)c1)Nc1ncc(CCNc2ncnc3ccsc23)s1 [Compound 1]

>  <System Tested>
A2780

>  <pIC50>
8.74

$$$$

###

# Assay Remarks: Rising dose pharmacokinetics (exposure, gender)
# Type: in vivo, rats
# Study Conditions: Sprague-Dawley, plasma, iv, 600 mg/m2, rat, 600 mg/m^2, read-out: Vss

>  <Line Notation>
O=C(Nc1cccc(Cl)c1)Nc1ncc(CCNc2ncnc3ccsc23)s1

>  <Unit Descriptor>
L/kg

>  <Vd>
1.1

$$$$

###

# Assay Remarks: Pharmacokinetics, single bolus intravenous injection
# Type: in vivo, beagle dogs
# Study Conditions: beagle, dog, plasma, 5 mg/kg
# Excerpt: Pharmacokinetic parameters were estimated using noncompartmental analysis within WinNonlin v. 4.1. Quantification of Compound 2 was done by HPLC-MS/MS after extraction from plasma with acetonitrile. […] For rising dose experiments measuring exposure for each species, sets containing several animals were singly dosed at a given dose. Results from single-dose experiments are shown in FIG. 10A, Table 43, and in FIG. 10B and Table 44, respectively. […] C0 is initial concentration extrapolated to time zero. […]
Readout Name: AUC(0-inf) (ng·h/mL)

>  <Compound>
O=C(Nc1cccc(Cl)c1)Nc1ncc(CCNc2ncnc3ccsc23)s1 [Compound 2]

>  <Readout Name>
AUC(0-inf)

>  <Experimental Value>
12300

$$$$

###

# Assay Remarks: Rising dose pharmacokinetics (exposure, gender)
# Format: in vivo, rats
# Study Conditions: Sprague-Dawley, plasma, iv, 600 mg/m2, rat, 600 mg/m^2

>  <Line Notation>
O=C(Nc1cccc(Cl)c1)Nc1ncc(CCNc2ncnc3ccsc23)s1

>  <clearance / mL/min/kg>
2

$$$$

###

# Assay Remarks: Rising dose pharmacokinetics (exposure, gender)
# Type: in vivo, rats
# Study Conditions: Sprague-Dawley, plasma, iv, 600 mg/m2, rat, 600 mg/m^2
Readout Name: half-life

>  <Line Notation>
O=C(Nc1cccc(Cl)c1)Nc1ncc(CCNc2ncnc3ccsc23)s1

>  <Readout Name>
half-life

>  <Experimental Value>
5.9 h

$$$$

###

# Assay Remarks: Pharmacokinetics, single bolus intravenous injection
# Format: in vivo, beagle dogs
# Study Conditions: beagle, dog, plasma, 5 mg/kg, read-out: Vss

>  <Line Notation>
O=C(Nc1cccc(Cl)c1)Nc1ncc(CCNc2ncnc3ccsc23)s1

>  <Vd (L/kg)>
1

$$$$

###

# Test system: panel of 219 kinases
# Study Conditions: read-out: IC50 of the remaining 197 kinases
pIC50: −log10 of the molar value.
Readout Name: pIC50

>  <Compound>
CS(=O)(=O)O.O=C(Nc1cccc(Cl)c1)Nc1ncc(CCNc2ncnc3ccsc23)s1 [Compound 1]

>  <Experimental Value>
≤ 6.00

$$$$

###

# Assay Remarks: Clinical pharmacokinetic evaluation, 3-hour infusion
# Format: in vivo, human
# Study Conditions: human, plasma, intravenous; patients, weekly 3-hour infusion, Days 1 and 15; read-out: terminal half-life (converted)
Readout Name: half-life

>  <Line Notation>
O=C(Nc1cccc(Cl)c1)Nc1ncc(CCNc2ncnc3ccsc23)s1

>  <Readout Name>
half-life

>  <Experimental Value>
7 h

$$$$

###

# Assay Remarks: Rising dose pharmacokinetics (exposure, gender)
# Type: in vivo, rats
# Study Conditions: Sprague-Dawley, plasma, iv, 300 mg/m2, rat, 300 mg/m^2

>  <Molecule>
O=C(Nc1cccc(Cl)c1)Nc1ncc(CCNc2ncnc3ccsc23)s1 [Compound 2]

>  <half-life>
1.7 h

$$$$

###

# Assay Remarks: Distribution of compound in tumor and plasma, HCT 116 xenograft mice
# Format: in vivo, mouse
# Study Conditions: female, nu/nu athymic, mouse, tumor, ip, 170 mg/kg; read-out: half-life in tumor (converted)
Readout Name: half-life (h)

>  <Line Notation>
O=C(Nc1cccc(Cl)c1)Nc1ncc(CCNc2ncnc3ccsc23)s1

>  <Readout Name>
half-life

>  <Experimental Value>
7.5

$$$$

###

# Assay Remarks: Pharmacokinetics, single bolus intravenous injection
# Assay type: in vivo, CD-1 mice
# Study Conditions: CD-1, mouse, plasma, 5 mg/kg
Readout Name: half-life (h)

>  <Compound>
O=C(Nc1cccc(Cl)c1)Nc1ncc(CCNc2ncnc3ccsc23)s1 [Compound 2]

>  <Unit Descriptor>
h

>  <Experimental Value>
1.4

$$$$

###

# Assay Remarks: Pharmacokinetics, single bolus intravenous injection
# Type: in vivo, Sprague-Dawley rats
# Study Conditions: Sprague-Dawley, rat, plasma, 5 mg/kg, read-out: Vss

>  <Line Notation>
O=C(Nc1cccc(Cl)c1)Nc1ncc(CCNc2ncnc3ccsc23)s1

>  <Vd / L/kg>
1.8

$$$$

###

# Assay Remarks: Pharmacokinetics, single bolus intravenous injection
# Assay type: in vivo, beagle dogs
# Study Conditions: beagle, dog, plasma, 5 mg/kg

>  <Compound>
O=C(Nc1cccc(Cl)c1)Nc1ncc(CCNc2ncnc3ccsc23)s1 [Compound 2]

>  <clearance (mL/min/kg)>
6.8

$$$$
